Value source: patent US11633383B2

Test: Plasma concentrations of BAL27862 (Cmax, AUC) in patients, daily oral administration study
Type: in vivo
Details: human; BAL27862 in plasma; BAL101553 dihydrochloride daily oral, 20 mg, N=7
Quantity Measured: Cmax
State the value, then name its unit.

Problem: Which Cmax reading was recorded for the molecule N#CCCNc1nonc1-c1nc2ccccc2n1CC(=O)c1ccc(N)cc1 ?
Solution: 134 ng/mL

###

Experiment: Plasma concentrations of BAL27862 (Cmax, AUC) in patients, 48-hour intravenous infusion study
Format: in vivo, human
Settings: human, intravenous; BAL27862 in plasma; BAL101553 dihydrochloride 48-hour infusion, 90 mg/m^2, N=4; read-out: Cmax (mean, ng/ml)
Quantity Measured: Cmax (ng/mL)
Please reply with the bare figure in ng/mL and do not write the unit itself.

Problem: Which Cmax reading was recorded for the molecule N#CCCNc1nonc1-c1nc2ccccc2n1CC(=O)c1ccc(N)cc1 [BAL27862] ?
Solution: 238

###

Experiment: Plasma concentrations of BAL27862 (Cmax, AUC) in patients, daily oral administration study
Format: in vivo
Conditions: human, plasma; BAL27862; BAL101553 dihydrochloride daily oral, 20 mg, N=7; compared as weekly exposure
Quantity Measured: AUC (ng·h/mL)
Please reply with the bare figure in ng·h/mL and do not write the unit itself.

Problem: Which AUC reading was recorded for the compound N#CCCNc1nonc1-c1nc2ccccc2n1CC(=O)c1ccc(N)cc1 ?
Solution: 12200

###

Assay: Plasma concentrations of BAL27862 (Cmax, AUC) in patients, daily oral administration study
Type: in vivo
Settings: human, plasma; BAL27862; BAL101553 dihydrochloride daily oral, 16 mg, N=7; compared as weekly exposure
Quantity Measured: AUC (ng·h/mL)
Please reply with the bare figure in ng·h/mL and do not write the unit itself.

Problem: Which AUC reading was recorded for the molecule N#CCCNc1nonc1-c1nc2ccccc2n1CC(=O)c1ccc(N)cc1 ?
Solution: 8400
